Attribute: pKi
target: hKOR (Homo sapiens, UniProt P41145); test: Receptor binding with [3H]diprenorphine at hKOR; details: PZM analogs; (n) = number of independent experiments; read-out: binding affinity Ki hKOR
Sequence (P41145 whole entry): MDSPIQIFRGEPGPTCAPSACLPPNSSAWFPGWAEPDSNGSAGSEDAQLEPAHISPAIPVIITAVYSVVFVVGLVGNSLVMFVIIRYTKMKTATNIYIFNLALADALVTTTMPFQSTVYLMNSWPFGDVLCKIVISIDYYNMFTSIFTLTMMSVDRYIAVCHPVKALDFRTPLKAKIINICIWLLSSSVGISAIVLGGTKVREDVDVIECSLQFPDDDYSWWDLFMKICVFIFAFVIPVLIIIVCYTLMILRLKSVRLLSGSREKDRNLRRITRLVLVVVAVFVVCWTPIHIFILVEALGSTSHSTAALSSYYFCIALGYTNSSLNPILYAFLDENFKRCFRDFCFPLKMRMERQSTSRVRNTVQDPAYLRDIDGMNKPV
Scale: negative log10 of molar concentration, which is what pKi denotes.

Some compounds with recorded pKi:
| Compound | Property Label | Value Measured |
| --- | --- | --- |
| CN(C)[C@H](CNC(=O)NCCc1cn(CCSSCCN=[N+]=[N-])nn1)Cc1ccc(O)cc1 [drawing 545] | pKi | 5.82 |
| CN(C)[C@H](CNC(=O)NCCc1ccsc1)Cc1ccccc1 | pKi | 5.51 |
| CN(CCc1ccccc1)C(=O)N(C)C[C@H](Cc1ccc(O)cc1)N(C)C [drawing 505] | pKi | 6.66 |

Any idea what its pKi is? The compound is COc1cccc(CCNC(=O)NCC(Cc2ccc(O)cc2)N(C)C)c1 (centres unmarked)
5.89

Any idea what its pKi is? The compound is CN(C)[C@H](CNC(=O)NCCc1ccsc1)Cc1ccc(O)cc1 [drawing 500]
6.82

Any idea what its pKi is? The compound is C=CCN(C[C@H](Cc1ccccc1)N(C)C)C(=O)N[C@H](C)Cc1ccsc1
5.51

Any idea what its pKi is? The compound is CN(C)[C@H](CNC(=O)NC(C)(C)Cc1ccsc1)Cc1ccc(O)cc1 [drawing 528]
7.34

Any idea what its pKi is? The compound is C[C@H](Cc1ccccc1)NC(=O)NC[C@H](Cc1ccc(O)cc1)N(C)C [drawing 516]
7.17

---

target: UniProtKB P35372; test: Radioligand binding studies (Example 6) at hMOR; details: read-out: Binding affinities hMOR [3H]dyprenorph
Property Label: pKi
Scale: negative log10 of molar concentration, which is what pKi denotes.

Any idea what its pKi is? The compound is CN[C@H](CNC(=O)NCCc1ccc(F)cc1OC)Cc1ccc(O)cc1
6.89

---

Attribute: Ki
biological target: UniProtKB P35372; experiment: Receptor binding with [3H]diprenorphine at hMOR; settings: PZM analogs; (n) = number of independent experiments; read-out: binding affinity Ki hMOR
Numbers only; they are read as nM.

Some compounds with recorded Ki:
| Compound | Property Label | Value Measured |
| --- | --- | --- |
| CN(C)[C@H](CNC(=S)NCCc1ccsc1)Cc1ccc(O)cc1 [drawing 501] | Ki | 29 |
| CN(C)[C@@H](CNC(=O)NC(C)(C)Cc1ccccc1)Cc1ccc(O)cc1 | Ki | 460 |
| CN(C)[C@H](CNC(=O)NCCc1ccsc1)Cc1ccc(O)cc1 [drawing 500] | Ki | 43 |
| C=CCN(C[C@H](Cc1ccccc1)N(C)C)C(=O)N[C@H](C)Cc1ccsc1 | Ki | 4100 |
| CN(CCc1ccccc1)C(=O)NC[C@H](Cc1ccc(O)cc1)N(C)C [drawing 504] | Ki | 320 |

Any idea what its Ki is? The compound is CN(C)[C@H](CNC(=O)CCCc1ccccc1)Cc1ccc(O)cc1
72

Any idea what its Ki is? The compound is CN(C)[C@H](CNC(=O)NC(C)(C)Cc1ccsc1)Cc1ccc(O)cc1 [drawing 528]
38

Any idea what its Ki is? The compound is CN(C)[C@@H](CNC(=O)NC(C)(C)Cc1ccsc1)Cc1ccc(O)cc1
310

Any idea what its Ki is? The compound is O=C(NCCc1ccccc1)NC[C@H](Cc1ccc(O)cc1)N1CCCC1
660

Any idea what its Ki is? The compound is CN(C)[C@@H](CNC(=O)NCCc1ccsc1)Cc1ccccc1
4200

Any idea what its Ki is? The compound is C[C@H](NC(=O)NC[C@H](Cc1ccc(O)cc1)N(C)C)c1cccc2ccccc12 [drawing 524]
85

Any idea what its Ki is? The compound is C[C@@H](Cc1ccsc1)NC(=O)NCC(Cc1ccc(O)cc1)N(C)Cc1ccccc1 (stereo partly drawn)
220

Any idea what its Ki is? The compound is COc1cccc(CCNC(=O)NCC(Cc2ccc(O)cc2)N(C)C)c1 (stereo not drawn)
110

Any idea what its Ki is? The compound is C=CCN(C[C@H](Cc1ccccc1)N(C)C)C(=O)N[C@@H](C)Cc1ccsc1
3200

Any idea what its Ki is? The compound is C[C@H](CN1C(=O)C=CC1=O)NC(=O)NC[C@H](Cc1ccc(O)cc1)N(C)C
90

Any idea what its Ki is? The compound is CC(Cc1csc2ccccc12)NC(=O)NC[C@H](Cc1ccc(O)cc1)N(C)C (mixture of isomers)
14

Any idea what its Ki is? The compound is C[C@@H](Cc1ccsc1)NC(=O)NC[C@H](Cc1cccc(O)c1)N(C)C [drawing 531]
34

Any idea what its Ki is? The compound is CN(CCc1ccccc1)C(=O)N(C)C[C@H](Cc1ccc(O)cc1)N(C)C [drawing 505]
490

---

target: μOR (Homo sapiens); test: cell-based; format: cell-based; details: μOR Gi EC50 (μM), ND = not detectable under these experimental conditions
Attribute: EC50
Note: state the figure and append the unit.

| Structure String | Property Label | Value Measured |
| --- | --- | --- |
| CN(C)[C@H](CNC(=O)NCc1cccc([N+](=O)[O-])c1)Cc1ccccc1 | EC50 | 0.44 µM |

Shifting focus to the compound that follows.
Find the measured EC50: item COc1nc(C)cc(C)c1CNC(=O)NC[C@@H](Cc1ccccc1)N(C)C , target or system μOR (Homo sapiens).
3.1 µM

---

molecular target: hMOR (Homo sapiens); experiment: Receptor binding with [3H]diprenorphine at hMOR; conditions: PZM analogs; (n) = number of independent experiments; read-out: binding affinity Ki hMOR
Sequence (P35372 whole entry): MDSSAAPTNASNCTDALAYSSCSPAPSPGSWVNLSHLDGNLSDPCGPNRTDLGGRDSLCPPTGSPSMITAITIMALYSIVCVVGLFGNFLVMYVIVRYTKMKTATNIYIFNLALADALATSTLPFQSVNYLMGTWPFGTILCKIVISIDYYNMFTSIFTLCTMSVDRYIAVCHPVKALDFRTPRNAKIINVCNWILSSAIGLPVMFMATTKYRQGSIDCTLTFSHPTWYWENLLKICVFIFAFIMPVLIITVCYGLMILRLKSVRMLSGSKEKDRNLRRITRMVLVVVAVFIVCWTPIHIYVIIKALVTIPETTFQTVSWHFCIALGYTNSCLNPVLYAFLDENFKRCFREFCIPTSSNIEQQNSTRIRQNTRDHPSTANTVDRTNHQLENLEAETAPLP
Property Label: Ki (nM)
Numbers only; they are read as nM.

| Compound | Ki, nM |
| --- | --- |
| COc1ccccc1CCNC(=O)NCC(Cc1ccc(O)cc1)N(C)C (stereo not drawn) | 22 |

Any idea what its Ki is? The compound is Cc1ccc([C@H](C)NC(=O)NC[C@H](Cc2ccc(O)cc2)N(C)C)cc1 [drawing 523]
150

Any idea what its Ki is? The compound is CN(C)[C@@H](CNC(=O)NC(C)(C)Cc1ccsc1)Cc1ccccc1
180

Any idea what its Ki is? The compound is C[C@@H](Cc1ccsc1)NC(=O)NC[C@H](Cc1ccc(O)nc1)N(C)C
4600

Any idea what its Ki is? The compound is C[C@@H](Cc1ccsc1)NC(=O)NC[C@H](Cc1ccc(O)c(CO)c1)N(C)C [drawing 535]
66

Any idea what its Ki is? The compound is CN(C)[C@H](CNC(=O)NC(C)(C)Cc1ccccc1)Cc1ccc(O)cc1 [drawing 530]
46

Any idea what its Ki is? The compound is Cc1cc(O)cc(C)c1C[C@@H](CNC(=O)NCCc1ccsc1)N(C)C
6.2

Any idea what its Ki is? The compound is C[C@H](Cc1csc2ccccc12)NC(=O)NC[C@H](Cc1ccc(O)cc1)N(C)C
43

Any idea what its Ki is? The compound is CC(C)N(C[C@H](Cc1ccc(O)cc1)N(C)C)C(=O)N[C@@H](C)c1cccc2ccccc12
400

---

molecular target: μOR (Homo sapiens, UniProt P35372); assay: biochemical; type: binding; set-up: expressed in transfected cells; host or cells: HEK293 membranes (Ki); Sf9 insect cell membranes (single-point screen); PDSP for analogs; conditions: molecules identified in the initial screen; read-out: μOR Ki
Sequence (P35372 whole entry): as the sequence (P35372 whole entry) above
Attribute: pKi
Scale: negative log10 of molar concentration, which is what pKi denotes.

| Compound | pKi |
| --- | --- |
| CN(C)[C@H](CNC(=O)Cc1cn2ccccc2n1)Cc1ccccc1 [compound 2] | 5.24 |
| Cc1cccc(NC2CCN(C(=O)Nc3ccc(F)cc3F)CC2)n1 [compound 3] | 4.86 |

Shifting focus to the compound that follows.
Any idea what its pKi is? The compound is Cc1ccc2[nH]c(=O)c(CN3CCN[C@@H](c4ccccc4)C3)cc2c1 [compound 5]
5.33

---

biological target: UniProt:P35372; test: biochemical; format: binding; set-up: expressed in transfected cells; host or cells: HEK293 membranes (Ki); Sf9 insect cell membranes (single-point screen); PDSP for analogs
Property Label: Ki (nM)
Numbers only; they are read as nM.

Some compounds with recorded Ki:
| Structure String | Value Measured |
| --- | --- |
| COc1nc(C)cc(C)c1CNC(=O)NC[C@@H](Cc1ccccc1)N(C)C | 550 |
| CN(C)[C@H](CNC(=O)NCc1cccc([N+](=O)[O-])c1)Cc1ccccc1 | 87 |
| CN(C)[C@H](CNC(=O)Cc1ccc([N+](=O)[O-])s1)Cc1ccccc1 | 2300 |
| Cc1nc(CNC(=O)NC[C@@H](Cc2ccccc2)N(C)C)sc1C | 130 |

Shifting focus to the compound that follows.
Any idea what its Ki is? The compound is CN(Cc1nnc(C2CC2)n1C)C(=O)NC[C@@H](Cc1ccccc1)N(C)C
4750
